Values were extracted from PubChem BioAssay (NCI).

Test system: KM12 colon
method: NCI-60 one-dose screen, 48 h
experimental.parameters: 10 µM
This is part of a sample that, as a whole, favours compounds with a hit. Of some 83,000 tested, about 20% had one in any assay. The source made the active and inactive calls. The calls were made as follows: active = growth percent below 10; inactive = the rest.
# output must be one of active, inactive

Test call, this compound: Cc1cc(=O)oc2cc(OCCCCOc3ccc(/C=C/C(=O)Nc4cccc(Cl)c4)cc3)ccc12
inactive

Hi, do you know how O=C(NO)c1ccc(CN2CCN(c3nc(-c4ccccc4)c4ccccc4n3)CC2)cc1 came out in this test?
inactive

Would you mind telling me which call this test gave O=C1Nc2ccc(Cl)cc2/C1=C/c1cccc(OCc2ccccn2)c1 ?
active

Short answer needed: outcome of this test for O=C1Nc2ccc(F)cc2/C1=C/c1cccc(OCc2ccccn2)c1 ?
inactive

Test call for this compound, please: O=C1Nc2cc(Cl)ccc2/C1=C/c1cccc(OCc2ccccc2)c1
active

Call for entry COc1cc(/C=C/C(=O)c2ccc(NC(=O)CN3C(=O)NC(C)(c4ccccc4)C3=O)cc2)cc(OC)c1OC (stereo not drawn) :
active

Call for entry O=C(c1ccc(O)cc1)C1[C@H](c2ccc(Br)cc2)[C@@H](c2ccccc2)NC12C(=O)Nc1ccc(Br)cc12 (stereo partly drawn) :
active

What was the test verdict on O=c1c2ccccc2nc(COc2ccccc2)n1/N=C/c1ccc(N2CCOCC2)cc1 ?
inactive

Status in this test for Nc1cccnc1/C=N/NC(=S)NCCNC(=O)c1ccc(-n2nc(-c3ccccc3O)nc2-c2ccccc2O)cc1 ?
inactive

In this assay, the call recorded for O=C(Nc1ccc(OCc2ccccc2)cc1)Nc1ccc(Cl)c(C(F)(F)F)c1 was what?
active

Please let me know the test result on file for COc1cccc(/C=N/NC(=O)c2ccc3nc(-c4ccc(Cl)cc4)[nH]c3c2)c1O .
active

Query: recorded result category for CC1=C2C(=C[C@@](C)(CO)[C@@H]2O)/C(=N\N)[C@](C)(O)C12CC2 in this test
active

Can you look up the reported call for Cc1ccc(S(=O)(=O)c2nc(-c3ccccc3)oc2S(=O)(=O)CC(=O)N2CCCC2)cc1 for me?
inactive
